system tested: UniProt P22303
Sequence (P22303 whole entry): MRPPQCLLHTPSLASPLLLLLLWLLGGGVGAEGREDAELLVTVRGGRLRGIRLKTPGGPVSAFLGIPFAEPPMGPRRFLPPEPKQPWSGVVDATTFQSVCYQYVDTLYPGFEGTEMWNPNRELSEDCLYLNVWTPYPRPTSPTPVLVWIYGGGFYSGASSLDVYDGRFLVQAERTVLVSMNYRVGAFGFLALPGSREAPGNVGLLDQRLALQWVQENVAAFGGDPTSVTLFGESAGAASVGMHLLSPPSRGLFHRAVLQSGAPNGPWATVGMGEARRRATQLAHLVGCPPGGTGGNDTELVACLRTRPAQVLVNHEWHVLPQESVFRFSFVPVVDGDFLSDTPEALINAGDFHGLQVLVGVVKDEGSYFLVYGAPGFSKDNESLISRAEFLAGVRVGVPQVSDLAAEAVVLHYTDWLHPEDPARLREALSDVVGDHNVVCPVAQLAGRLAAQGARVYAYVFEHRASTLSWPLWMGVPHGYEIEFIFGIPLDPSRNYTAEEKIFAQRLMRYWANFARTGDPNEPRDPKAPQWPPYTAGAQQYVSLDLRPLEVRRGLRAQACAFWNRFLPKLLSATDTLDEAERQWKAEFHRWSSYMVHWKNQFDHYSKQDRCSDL
test description: Inhibition of AChE (unknown origin)
property name: IC50 (µM)
Only the number, expressed in µM, is required.

Field: IC50 (UniProt P22303). Entry: Cc1cc(-c2cc3cc([N+](=O)[O-])ccc3oc2=O)n[nH]1
16.3

Further cases:
Field: IC50 (UniProt P22303). Entry: O=C(Nc1cccc(-c2cc(-c3ccc(Cl)cc3)n[nH]2)c1)c1ccccc1
1.94

###

system tested: Cholinesterase (Homo sapiens)
Sequence (P06276 whole entry): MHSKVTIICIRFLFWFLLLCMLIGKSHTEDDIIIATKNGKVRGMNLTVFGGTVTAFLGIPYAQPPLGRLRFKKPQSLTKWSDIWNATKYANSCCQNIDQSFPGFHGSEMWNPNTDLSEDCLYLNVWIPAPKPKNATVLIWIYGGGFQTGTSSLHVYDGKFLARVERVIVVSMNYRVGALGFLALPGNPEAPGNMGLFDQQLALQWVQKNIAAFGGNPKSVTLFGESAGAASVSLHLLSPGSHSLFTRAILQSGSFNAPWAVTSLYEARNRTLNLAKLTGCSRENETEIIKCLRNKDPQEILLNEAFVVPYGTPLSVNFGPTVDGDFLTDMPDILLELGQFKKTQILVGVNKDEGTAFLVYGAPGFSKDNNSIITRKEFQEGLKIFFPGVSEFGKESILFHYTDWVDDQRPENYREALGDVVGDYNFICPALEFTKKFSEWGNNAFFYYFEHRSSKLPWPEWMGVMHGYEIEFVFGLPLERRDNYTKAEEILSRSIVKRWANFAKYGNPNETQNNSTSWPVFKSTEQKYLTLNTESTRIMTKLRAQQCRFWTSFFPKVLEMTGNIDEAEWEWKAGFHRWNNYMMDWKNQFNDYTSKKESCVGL
test description: Inhibition of BuChE (unknown origin) at 50 uM by Ellman's method relative to control
The source made the active and inactive calls. The rule behind the calls is not given here.
property name: inhibition

Please review the entries below; each comes with its answer.
For the molecule shown here, COc1ccc2c(c1)C1(NNC(Nc3ccc(C)c(C)c3)=C1[N+](=O)[O-])C(=O)N2 (configuration not stated) , give the reported inhibition.
52.3%

For the molecule shown here, O=C1Nc2ccccc2C12NNC(Nc1ccc(Cl)cc1)=C2[N+](=O)[O-] (configuration not stated) , give the reported inhibition.
14.9%

For the molecule shown here, COc1ccc(OC)c(NC2=C([N+](=O)[O-])C3(NN2)C(=O)Nc2ccc([N+](=O)[O-])cc23)c1 (configuration not stated) , give the reported inhibition.
25.1%

For the molecule shown here, COc1ccc(NC2=C([N+](=O)[O-])C3(NN2)C(=O)Nc2ccc(OC)cc23)cc1 (configuration not stated) , give the reported inhibition.
inactive

For the molecule shown here, Cc1ccc(NC2=C([N+](=O)[O-])C3(NN2)C(=O)Nc2ccccc23)cc1C (configuration not stated) , give the reported inhibition.
31.1%

For the molecule shown here, Cc1ccc(NC2=C([N+](=O)[O-])C3(NN2)C(=O)Nc2ccccc23)cc1 (configuration not stated) , give the reported inhibition.
56.5%

For the molecule shown here, Cc1ccccc1NC1=C([N+](=O)[O-])C2(NN1)C(=O)Nc1c(C(F)(F)F)cccc12 (configuration not stated) , give the reported inhibition.
37.5%

For the molecule shown here, O=C1Nc2ccccc2C12NNC(Nc1cccc(Cl)c1)=C2[N+](=O)[O-] (configuration not stated) , give the reported inhibition.
13.9%

Further cases:
For the molecule shown here, COc1ccc(NC2=C([N+](=O)[O-])C3(NN2)C(=O)Nc2ccccc23)cc1 (configuration not stated) , give the reported inhibition.
53.4%

For the molecule shown here, Cc1ccccc1NC1=C([N+](=O)[O-])C2(NN1)C(=O)Nc1ccccc12 (configuration not stated) , give the reported inhibition.
60.1%

Hey, just so you know, these numbers are from ChEMBL document CHEMBL5357038.
